Provide the recorded melting point for the entries that follow.
Quick reminder: number only, in °C, skip the unit.

Prompt: Need melting point of N[C@@H](CC(=O)O)C(=O)O , thanks.
Response: 230

Prompt: CCCc1ccc(-c2ccc(C(=O)O)cc2)cc1 , same question.
Response: 226

Prompt: Quick one: N#Cc1ccc(C(c2ccc(C#N)cc2)n2cncn2)cc1 [letrozole]
Response: 181

Prompt: Similarly, II ?
Response: 114

----------
# strict inequality: melting point < 50 °C yields satisfied, everything else yields not satisfied

Prompt: A record lists CNC(=O)NC . Is its melting point below 50 °C?
Response: not satisfied

Prompt: What about this compound? Cc1cc(/C=C2\SC(=Nc3ccccc3)N=C2O)c(C)n1-c1ccccn1
Response: not satisfied

Prompt: Quick one: O=C5\C=C3/[C@]([C@H]2CC[C@@]4([C@@H](OC(=O)CCc1ccccc1)CC[C@H]4[C@@H]2CC3)C)(C)CC5 [testosterone phenylpropionate]
Response: not satisfied

Prompt: What do we get for O=Cc1ccc(F)c(B(O)O)c1 ?
Response: not satisfied

Prompt: Same question for CC(=O)Oc1ccc(C(=O)O)cc1 please.
Response: not satisfied

Prompt: Another compound to look at: O=C(Cc1ccccc1)Cc1ccccc1
Response: satisfied

Prompt: Then what about the compound CC(C)(C)OC(=O)N1CCc2ccccc21 ?
Response: satisfied

Prompt: What do you get for CCCCNCCCC [di-n-butylamine] ?
Response: satisfied

Prompt: Could you do the same for Cc1ccc(C)c(C)c1 , please?
Response: satisfied

Prompt: Another: CC1(c2ccccc2)OC(C(=O)O)=CC1=O (centres undefined)
Response: not satisfied

Prompt: Now consider O=C(O)c1ccccc1B(O)O .
Response: not satisfied

Prompt: Note, next up: OB(O)c1cc(F)c(F)c(F)c1F
Response: not satisfied

Prompt: Please give the result for COC(=O)CC(N)=O [methyl malonamate] too.
Response: satisfied

Prompt: What would you report for CC(=O)Nc1ccc(O)cc1 [4-acetamidophenol] ?
Response: not satisfied

Prompt: Likewise for NC1=NCC(c2ccccc2)O1 (centres undefined) [aminorex] ?
Response: not satisfied

Prompt: Next: Cc1ccc(C)c(OCCCC(C)(C)C(=O)O)c1
Response: not satisfied

Prompt: For CC(=O)Nc1ccccc1S(C)(=O)=O [2'-(methylsulfonyl)acetanilide] then?
Response: not satisfied

Prompt: Please do the same for C=CCCCCCCCC [Dec-1-ene] as well.
Response: satisfied

Prompt: # iterate: C=CCC(C)C
Response: satisfied

Prompt: Ok, now CCCSc1ncccc1C(N)=O [2-(n-propylthio)nicotinamide]
Response: not satisfied

Prompt: Another compound to look at: CCC1(O)CCC(c2ccccc2)c2ccccc21 (centres undefined) [1-ethyl-4-phenyl-1,2,3,4-tetrahydronaphthalen-1-ol]
Response: not satisfied

Prompt: Also check Clc1ccccc1Cl
Response: satisfied

Prompt: Also O=c1cc[nH]c(=O)[nH]1 ?
Response: not satisfied

Prompt: Same question for Cc1ccc(CCl)cc1 [4-methylbenzyl chloride] please.
Response: satisfied

Prompt: Another compound: OCC(F)F
Response: satisfied

Prompt: Please do the same for COC(=O)CC#N [methyl cyanoacetate] as well.
Response: satisfied

Prompt: Query O=C1C(c2ccccc2)=C(c2ccccc2)C(c2ccccc2)=C1c1ccccc1 next
Response: not satisfied

Prompt: Another compound to check: CC12CCC(=O)C=C1CCC1C2C(O)CC2(C)C1CCC2(O)C(=O)CO (centres undefined) [hydrocortisone]
Response: not satisfied

The values you see were collected from the Bradley open melting point set (2014).
